B1: tRNA (parent)
chain: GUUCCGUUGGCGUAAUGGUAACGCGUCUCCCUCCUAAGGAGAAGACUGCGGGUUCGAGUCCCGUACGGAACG

variants of: B1; experiment: yeast fitness relative to wild type (ratio to wild type); higher = fitter; tRNA-Arg(CCU), competitive growth, 37 C, YPD
This sample holds only a part of the variants without activity.
Reported yeast fitness values follow for various variants

Variant Annotation | Comparator | yeast fitness
C24G A42G A43U U47A | = | 0.635
G6C A36C A65C G67A | ≤ | 0.5
C5U G12C A69U | = | 0.62
A15G U35A A65C | ≤ | 0.5
C5U G17A A40U A42C C49A C66A | = | 0.593
A15G A57U C60G G68C | ≤ | 0.5
U7A U28G C30A G52A | = | 0.595
C31G A43G | = | 0.982
U3A G68A | = | 0.854
C5A U8A C46G | ≤ | 0.5
A21C C62A | = | 0.788
A20C A21G A45U G67C | = | 0.61
C5U A45C A70G | = | 0.76
A14C A42G A57U | ≤ | 0.5
A21G A43C C60A | ≤ | 0.5
U3G A21C G51A | = | 0.605
C27G A40U G68C | = | 0.523
G10C A21G G56U C66A | = | 0.727
C11A U13C C49U U54C C61G C66U | = | 0.64
U26A C33A C34G | = | 0.644
G48C A65C C66G | = | 0.557
U2G C27G | = | 0.546
U2A U3C G18C A69U | ≤ | 0.5
G18A C46U G50U C60G A70G | ≤ | 0.5
G39C G68U | = | 0.762
G18C G23A G25C A37G A43C C55G G63A G68A | ≤ | 0.5
U3A A15C U35A G52C C55A | ≤ | 0.5
C4A U13C C31G G44C G52A G58A | ≤ | 0.5
C4G A21G C34G | ≤ | 0.5
A15U A20G A43C | = | 0.593
G10A C29U C49U G56A | = | 0.633
G38U G63A | = | 0.743
C11G A42U C49U C62U | ≤ | 0.5
U2A C5U G6A G39C C60A | ≤ | 0.5
A21C C34A | = | 0.605
U16G C31G C61A C66U | ≤ | 0.5
A37U G41C | = | 0.68
C11G U35A C66G | ≤ | 0.5
U2G C34G G39C | ≤ | 0.5
U32C C46G G52C G68C | ≤ | 0.5
C34A C66G | = | 0.647
C11A C27U G44U | ≤ | 0.5
C11G C27G | ≤ | 0.5
C55U G68A | = | 0.765
C5U G10C C30A A36U A42C | ≤ | 0.5
C4A C24G G63A C66A | ≤ | 0.5

These entries and their values trace back to the RNAGym collection of RNA variant scans (doi:10.1126/science.aae0568).
